System: KM12 colon
Assay: NCI-60 one-dose screen, 48 h (100 = growth as untreated, 0 = no growth, -100 = all killed)
Details: 10 µM unless noted
Compounds without any hit were thinned out: in the full panel of roughly 83,000, 20% have a hit.
property-measured: growth (%)
Answer with a number only, understood to be in %.

Some molecules with recorded growth:
molecule	target-or-test-system	unit-name	data-value
COc1ccc(-c2nc(SCC(C)C)nc(NCCc3c[nH]c4ccccc34)c2C#N)cc1	KM12 colon	%	52.8
COC(=O)/C=C/c1cccc2c1C(=O)NC(C)(c1cc3ccccc3oc1=O)N2 (stereo not drawn)	KM12 colon	%	68.8
CN(C)c1nc(NCCNS(=O)(=O)c2ccc(C3=Nc4c(N)nc(N)nc4NC(c4ccc(C(F)(F)F)cc4)C3)cc2)nc(Nc2ccc(F)cc2)n1 (stereo not drawn)	KM12 colon	%	-4.83
O=C(Nc1cccc(-n2cnc3cc(-c4ccc(O)cc4)ccc32)c1)C1CC1	KM12 colon	%	0.14
COc1c(F)ccc(C(=O)Nc2ccc3nc(NC(=O)C4CCCN(S(=O)(=O)c5ccc(C(F)(F)F)cc5)C4)sc3c2)c1F (stereo not drawn)	KM12 colon	%	75.2
CC(C)c1ccc2c(N)c(C(=O)Nc3cccc(C(F)(F)F)c3)sc2n1	KM12 colon	%	43.2
CN1CCN(c2ccc(C(=O)/C=C/c3cc(C(F)(F)F)cc(C(F)(F)F)c3)cc2)CC1	KM12 colon	%	-56.8
COc1cc2oc(-c3cccc(NC(=O)[C@H](Cc4ccccc4)NC(=O)OC(C)(C)C)c3)cc(=O)c2c(OC)c1OC	KM12 colon	%	19.5

Form field growth, entry COc1cc(CNC(=O)/C=C/c2ccc3c(c2)OCO3)ccc1OCc1cn(-c2cccc(C(F)(F)F)c2)nn1 : 48.8

In plain terms, CC(=O)OC[C@@]1(C)C2CC[C@]3(C)C(CC=C4C5CC(C)(C)CC[C@]5(C(=O)Nc5ccc(Br)cc5)CC[C@]43C)[C@@]2(C)C[C@@H](OC(C)=O)[C@@H]1OC(C)=O (stereo partly drawn) has a documented growth of 46.4

Lab note: CN(C)CCn1c2ccccc2c2nc3cc4ccccc4cc3nc21 gave growth of 4.87

Measured growth, O=C(/C=C/c1ccc(O)c(O)c1)NC1CCOC1O (stereo not drawn) : 102

The reported value for COc1ccc(-c2c(Nn3cnnn3)no[n+]2[O-])cc1 in terms of growth is 68.2

Data point: Cc1cc2nc3c4ccccc4n(CCCN(C)C)c3nc2cc1C ; growth = -8.99

Short answer for O=C(N=Nc1c(O)[nH]c2ccc([N+](=O)[O-])cc12)c1ccc2nc(-c3ccccc3)[nH]c2c1 : growth was 99.5

The molecule identified as C=C1CC[C@@H]2[C@]3(C)COC(c4cn[nH]c4-c4ccccc4)O[C@@H]3CC[C@@]2(C)[C@@H]1C/C=C1/C(=O)OCC1O (stereo partly drawn) registered its growth at -11.3

# growth (molecule: CC(=O)Nc1ccc(-n2cnc3ccc(-c4ccc(O)cc4)cc32)cc1 ) is 17.8

growth reading for COc1cc2oc(-c3cccc(C(=O)Nc4cccc([N+](=O)[O-])c4)c3)cc(=O)c2c(OC)c1OC : 47.9

====

System: 786-0 renal
Assay: NCI-60 one-dose screen, 48 h (100 = growth as untreated, 0 = no growth, -100 = all killed)
Details: 10 µM unless noted
Compounds without any hit were thinned out: in the full panel of roughly 83,000, 20% have a hit.
property-measured: growth (%)
I only need the number, in %, no unit after it.

Guide cases for growth, answers given:
> print(dat)
                         structure.notation  data.value
1  N#Cc1c(-c2ccc(Br)cc2)nc2n[nH]c(-c3ccc(Br)cc3)c2c1-c1ccc(F)cc1         102
2  COc1ccc(/C=C2\C(=N)N=C(SCc3nc4ccccc4[nH]3)NC2=O)cc1         114
3  Cc1cc2nc3c([nH]c2cc1C)c1ccc(=O)cc1n3CCN(C)C        49.1
4  COC1=C[C@]23CCC(=O)N2CCc2cc4c(cc2[C@@H]3[C@@H]1OC(=O)[C@H](C)O)OCO4        22.7
5  Cc1ccc(-c2nc(C#N)c(S(=O)(=O)N3CCN(S(=O)(=O)c4ccccc4)CC3)o2)cc1       -87.1
6  COc1ccc(C(=O)/C=C/c2ccc(OCc3ccccc3)c(OC)c2)cc1OC        35.9

Summary for this compound, C#C[C@]1(O)CC[C@H]2[C@@H]3CC=C4c5sc(-c6ccc(O)c(O)c6)nc5CC[C@]4(C)[C@H]3CC[C@@]21C : growth is -88.3

Form: compound = COc1cccc(COc2ccc(NC(=O)Nc3ccc(Cl)c(C(F)(F)F)c3)cc2)c1 ; growth = 34.5

Form: compound = CC(C)Sc1nc(NCCc2c[nH]c3ccccc23)c(C#N)c(-c2ccccc2)n1 ; growth = 1.53
